experiment: Cytotoxicity against mouse J7.DEF.3 cells; assay type: cell-based
Measured Metric: log(1/C)
Give bare numbers.

# annotated cases, reported log(1/C) shown
Molecule	log(1/C)
CC(=O)O[C@H]1C(=O)[C@@]2(C)[C@H]([C@H](OC(=O)c3ccccc3)[C@]3(O)C[C@H](OC(=O)[C@H](O)[C@@H](NC(=O)c4ccc(F)cc4)c4ccccc4)C(C)=C1C3(C)C)[C@]1(OC(C)=O)CO[C@@H]1C[C@@H]2O	7.77
CC(=O)O[C@H]1C(=O)[C@@]2(C)[C@H]([C@H](OC(=O)c3ccccc3)[C@]3(O)C[C@H](OC(=O)[C@H](O)[C@@H](NC(=O)c4cccs4)c4ccccc4)C(C)=C1C3(C)C)[C@]1(OC(C)=O)CO[C@@H]1C[C@@H]2O	7.8
CC(=O)O[C@@]12CO[C@@H]1C[C@H](O)[C@@]1(C)C(=O)[C@H](O)C3=C(C)[C@@H](OC(=O)[C@H](O)[C@@H](NC(=O)OC(C)(C)C)c4ccccc4)C[C@@](O)([C@@H](OC(=O)c4ccccc4)[C@H]21)C3(C)C.O.O.O [DOCETAXEL]	8.14

Give log(1/C) for each listed item.
1. CCCc1ccc(C(=O)N[C@@H](c2ccccc2)[C@@H](O)C(=O)O[C@H]2C[C@@]3(O)[C@@H](OC(=O)c4ccccc4)[C@@H]4[C@]5(OC(C)=O)CO[C@@H]5C[C@H](O)[C@@]4(C)C(=O)[C@H](OC(C)=O)C(=C2C)C3(C)C)cc1
2. CC(=O)O[C@H]1C(=O)[C@@]2(C)[C@H]([C@H](OC(=O)c3ccccc3)[C@]3(O)C[C@H](OC(=O)[C@H](O)[C@@H](NC(=O)c4ccc(F)cc4F)c4ccccc4)C(C)=C1C3(C)C)[C@]1(OC(C)=O)CO[C@@H]1C[C@@H]2O

1: 7.77; 2: 7.6
